Measured pIC50, listed per entry for reference.
system tested: human IL-17A / human IL-17RA (Homo sapiens (Human), UniProt Q16552)
Sequence (Q16552 24-155): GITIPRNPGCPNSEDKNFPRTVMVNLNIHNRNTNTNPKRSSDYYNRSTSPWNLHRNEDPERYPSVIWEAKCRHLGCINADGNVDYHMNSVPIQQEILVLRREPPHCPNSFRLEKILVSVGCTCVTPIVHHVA
test method notes: Human IL-17A biochemical assay (HTRF, blocking of IL-17A binding to IL-17RA)
measurement context: 0.4 nM IL-17A, 0.3 nM IL-17RA, max compound concentration 10 uM
In plain terms, pIC50 is the concentration in mol/L turned into minus its base-10 logarithm.

| compound | pIC50 |
| --- | --- |
| CNC(=O)C1(N2CC(C)(C)NC2=O)Cc2ccc(NC(=O)[C@@H](NC(=O)c3ccnn3C)C3CCCCC3)cc2C1 (stereo partly drawn) | 6.01 |
| Cc1nonc1C(=O)N[C@H](C(=O)Nc1ccc2c(c1)CC(N1CC(C(F)(F)F)NC1=O)(C(C)(C)O)C2)C(C1CC1)C1CC1 (stereo partly drawn) | 7.19 |
| CNC(=O)C1(N2CC(C)(C(F)(F)F)CNC2=O)Cc2ccc(NC(=O)[C@@H](NC(=O)c3ccnn3C)C3CCCCC3)cc2C1 (stereo partly drawn) | 7.96 |
| Cc1ccccc1NC(=O)C1(N2C[C@@H](C(C)C)NC2=O)Cc2ccc(NC(=O)[C@@H](NC(=O)c3nonc3C)C3CCC(F)(F)CC3)cc2C1 (stereo partly drawn) | 6.45 |

Need pIC50 of CNC(=O)C1(N2CC3(CC3)CNC2=O)Cc2ccc(NC(=O)[C@@H](NC(=O)c3cnc4c(C#N)cccn34)C3CCCCC3)cc2C1 (stereo partly drawn) , thanks.
5.43

Need pIC50 of C#CCC1CN(C2(C(=O)NC)Cc3ccc(NC(=O)[C@@H](NC(=O)c4ccnn4C)C4CCCCC4)cc3C2)C(=O)N1 (stereo partly drawn) , thanks.
7.07

---

system tested: human IL-17A / human IL-17RA (Homo sapiens (Human), UniProt Q16552)
test method notes: Human IL-17A biochemical assay (HTRF, blocking of IL-17A binding to IL-17RA)
measurement context: 0.4 nM IL-17A, 0.3 nM IL-17RA, max compound concentration 10 uM
Measured pIC50, listed per entry for reference.
In plain terms, pIC50 is the concentration in mol/L turned into minus its base-10 logarithm.

| molecule | system tested | endpoint name | reading |
| --- | --- | --- | --- |
| CCC1CCC(C(NC(=O)c2ccnn2C)C(=O)Nc2ccc3c(c2)CC(C(=O)NC)(N2CC4(CCC4)CNC2=O)C3)CC1 (stereo not shown) [Example 125] | human IL-17A / human IL-17RA (Homo sapiens (Human), UniProt Q16552) | pIC50 | 8.25 |
| CNC(=O)C1(N2CC3(CC3)CNC2=O)Cc2ccc(NC(=O)[C@@H](NC(=O)c3ccnn3C(C)C)C(C3CC3)C3CC3)cc2C1 (stereo partly shown) [Example 115] | human IL-17A / human IL-17RA (Homo sapiens (Human), UniProt Q16552) | pIC50 | 6.59 |

Now take the following molecule into account.
Need pIC50 of CNC(=O)C1(N2CC3(CC3)CNC2=O)Cc2ccc(NC(=O)[C@@H](NC(=O)c3ccn(C4CC(O)C4)n3)C3CCCCC3)cc2C1 (stereo partly shown) [Example 133] , thanks.
6.49

---

system tested: human IL-17A / human IL-17RA (Homo sapiens (Human))
test method notes: Human IL-17A biochemical assay (HTRF, blocking of IL-17A binding to IL-17RA)
measurement context: 0.4 nM IL-17A, 0.3 nM IL-17RA, max compound concentration 10 uM
Protocol: Compounds disclosed herein were tested for blocking of human IL-17A (Cat: C774, novoprotein) protein with its receptor human IL-17RA (Cat: C153, novoprotein) in an assay based on Homogeneous Time Resolved Fluorescence. […] The HTRF signals (ex337 nm, em620 nm/665 nm) were read on BMG PHERAstar FSX instrument. […]
endpoint name: log10 of IC50 (log10 of the value in nM)
Hi team, quick reminder: these entries are log10 of IC50 (nM).

| compound | log10 of IC50 |
| --- | --- |
| Cc1nonc1C(=O)N[C@H](C(=O)Nc1ccc2c(c1)CC(Cc1ccc(F)cc1)(N1C[C@@H](C(C)C)NC1=O)C2)C(C1CC1)C1CC1 (stereo partly shown) [Example 241] | 3.47 |
| Cc1nonc1C(=O)N[C@H](C(=O)Nc1ccc2c(c1)OC(CN1C[C@@H](C(C)C)NC1=O)C2)C(C1CC1)C1CC1 (stereo partly shown) [Example 271] | 2.43 |

Need log10 of IC50 of CC(C)[C@@H]1CN(C2(C(N)=O)Cc3ccc(NC(=O)[C@@H](NC(=O)c4ccnn4C)C4CCCCCC4)cc3C2)C(=O)N1 (stereo partly shown) [Example 83] , thanks.
1.34

Need log10 of IC50 of CNC(=O)C1(N2C[C@@H](C(C)C)NC2=O)Cc2ccc(NC(=O)[C@@H](NC(=O)c3cccc(OC(C)C)c3)C3CCCCC3)cc2C1 (stereo partly shown) [Example 84] , thanks.
1.57

---

system tested: human IL-17A / human IL-17RA (Homo sapiens (Human))
test method notes: Human IL-17A biochemical assay (HTRF, blocking of IL-17A binding to IL-17RA)
measurement context: 0.4 nM IL-17A, 0.3 nM IL-17RA, max compound concentration 10 uM
Procedure: Compounds disclosed herein were tested for blocking of human IL-17A (Cat: C774, novoprotein) protein with its receptor human IL-17RA (Cat: C153, novoprotein) in an assay based on Homogeneous Time Resolved Fluorescence. […] The HTRF signals (ex337 nm, em620 nm/665 nm) were read on BMG PHERAstar FSX instrument. […]
endpoint name: IC50 (nM)
A number alone suffices; assume nM.

| compound | result units | IC50 |
| --- | --- | --- |
| COc1ccc(CNC(=O)C2(N3C[C@@H](C(C)C)NC3=O)Cc3ccc(NC(=O)[C@@H](NC(=O)c4ccnn4C)C4CCCCC4)cc3C2)cc1 (stereo partly drawn) [Example 150] | nM | 20 |
| CC(C)[C@@H]1CN(C2(C(=O)NC(CO)C3CCC3)Cc3ccc(NC(=O)[C@@H](NC(=O)c4ccnn4C)C4CCCCC4)cc3C2)C(=O)N1 (stereo partly drawn) [Example 86] | nM | 22 |
| CCC(CC)OC(=O)C1(N2CC3(CC3)CNC2=O)Cc2ccc(NC(=O)[C@@H](NC(=O)c3nonc3C)C3CCC(F)(F)CC3)cc2C1 (stereo partly drawn) [Example 207] | nM | 347 |
| Cn1nccc1C(=O)N[C@H](C(=O)Nc1ccc2c(c1)CC(C(=O)C(F)(F)F)(N1CC3(CC3)CNC1=O)C2)C1CCCCC1 (stereo partly drawn) [Example 193] | nM | 50.7 |
| CNC(=O)C1(N2CC(C3CC3)CNC2=O)Cc2ccc(NC(=O)[C@@H](NC(=O)c3ccnn3C)C3CCCCC3)cc2C1 (stereo partly drawn) [Example 94] | nM | 40 |

Need IC50 of CNC(=O)C1(N2CC(C(C)(C)O)NC2=O)Cc2ccc(NC(=O)[C@@H](NC(=O)c3ccnn3C)C3CCCCC3)cc2C1 (stereo partly drawn) [Example 42] , thanks.
3170

---

Measured pIC50, listed per entry for reference.
system tested: human IL-17A / human IL-17RA (Homo sapiens (Human), UniProt Q16552)
test method notes: Human IL-17A biochemical assay (HTRF, blocking of IL-17A binding to IL-17RA)
measurement context: 0.4 nM IL-17A, 0.3 nM IL-17RA, max compound concentration 10 uM
In plain terms, pIC50 is the concentration in mol/L turned into minus its base-10 logarithm.

Examples with their reported pIC50 follow.
| molecule | system tested | reading |
| --- | --- | --- |
| Cc1nonc1C(=O)N[C@H](C(=O)Nc1ccc2c(c1)CC(C(=O)Nc1cccc(F)c1)(N1C[C@@H](C(C)C)NC1=O)C2)C1CCC(F)(F)CC1 (stereo partly drawn) | human IL-17A / human IL-17RA (Homo sapiens (Human), UniProt Q16552) | 6.54 |
| CNC(=O)C1(N2CC(C)NC2=O)Cc2cc(NC(=O)[C@@H](NC(=O)c3ccnn3C)C3CCCCC3)sc2C1 (stereo partly drawn) | human IL-17A / human IL-17RA (Homo sapiens (Human), UniProt Q16552) | 5.10 |
| Cc1nonc1C(=O)N[C@H](C(=O)Nc1ccc2c(c1)CC(c1nc3cccc(C(F)(F)F)c3[nH]1)(N1CC3(CC3)CNC1=O)C2)C1CCC(F)(F)CC1 (stereo partly drawn) | human IL-17A / human IL-17RA (Homo sapiens (Human), UniProt Q16552) | 5.78 |
| CCc1ccccc1NC(=O)C1(N2C[C@@H](C(C)C)NC2=O)Cc2ccc(NC(=O)[C@@H](NC(=O)c3nonc3C)C(C3CC3)C3CC3)cc2C1 (stereo partly drawn) | human IL-17A / human IL-17RA (Homo sapiens (Human), UniProt Q16552) | 7.61 |
| CNC(=O)C1(N2C[C@@H](C(C)C)NC2=O)Cc2cc(NC(=O)[C@@H](NC(=O)c3ccnn3C)C3CCCCC3)cnc2C1 (stereo partly drawn) | human IL-17A / human IL-17RA (Homo sapiens (Human), UniProt Q16552) | 6.03 |

Now take the following molecule into account.
Need pIC50 of CC(C)[C@@H]1CN(C2(C(=O)N3CCC(O)C3)Cc3ccc(NC(=O)[C@@H](NC(=O)c4ccnn4C)C4CCCCC4)cc3C2)C(=O)N1 (stereo partly drawn) , thanks.
6.97
